method_description: log P by HPLC on reversed-phase column (C18), EEC directive 79/831 Annex V.A8
Type: physicochemical
study_conditions: Table A; HPLC reversed-phase C18, 43° C.; data refer to the E isomer
Rule: measured log p below 3 gets Fulfilled; anything equal to or greater than 3 gets Not fulfilled.

Sample answers from the record:
{"columns": ["compound", "class"],
 "data": [
  ["CON=Cc1cc(C)c(NC(=O)c2cc(C(F)(F)F)nn2-c2ncccc2Cl)c(C(=O)N(C)NS(C)(=O)=O)c1 [A-31]", "Fulfilled"],
  ["CON=Cc1cc(C)c(NC(=O)c2cc(C(F)(F)F)nn2-c2ncccc2Cl)c(C(=O)NNC(C)=O)c1 (mixture of isomers) [A-32]", "Fulfilled"],
  ["CON=Cc1cc(C)c(NC(=O)c2cc(Br)nn2-c2ncccc2Cl)c(C(=O)NNC(=O)OC)c1 (mixture of isomers) [A-42]", "Fulfilled"],
  ["CON=Cc1cc(C)c(NC(=O)c2cc(C(F)(F)F)nn2-c2ncccc2Cl)c(C(=O)NNS(C)(=O)=O)c1 [A-23]", "Fulfilled"],
  ["COCCOC(=O)NN(C)C(=O)c1cc(C=NOC)cc(C)c1NC(=O)c1cc(Br)nn1-c1ncccc1Cl [A-13]", "Fulfilled"]
]}

Strictly below 3: is that where log p of CON=Cc1cc(C)c(NC(=O)c2cc(C(F)(F)F)nn2-c2ncccc2Cl)c(C(=O)NN(C)C(=O)OC)c1 (mixture of isomers) [A-46] sits?
Fulfilled
